Test system: K-562 leukemia
Assay: NCI tumour cell line growth inhibition, 48 h
Assign class by TGI: not lower than 30 µM means yes; lower than 30 µM means no.

Examples with answers:
CCOC(=O)Sc1ncnc2nc[nH]c12
yes
COc1ccccc1C[C@@H]1OC2(C=CC(=O)CC2SC(=O)c2ccccc2)O[C@H]1Cc1ccccc1OC (some centres not stated)
no
COC(=O)c1ccccc1/C=C1\Cc2c(C)c3c(c(C)c2C1=O)CCC3
yes

Hello, I need to know if `Nc1ccc(/C=C/c2ccnc3ccccc23)cc1` has measured TGI not below 30 µM. Thanks!
yes

Hello, I need to know if CC1=NN(c2ccccc2)C2(C1)C(Cl)C(=O)N2c1nc2ccccc2s1 (configuration not stated) has measured TGI not below 30 µM. Thanks!
yes

###

Parameter TGI: see the listing below.
System: NCI-H23 lung
Assay: NCI tumour cell line growth inhibition, 48 h
Your answer is read as µM, so omit the unit and give the number.

Some solved entries appear below for comparison.
CN(C)CCCn1c2c(c3ccccc3c1=O)C(=O)c1ccccc1-2
8.39
CCOC(=O)c1c(CN2CCN(c3ccccc3)CC2)n(-c2ccccc2)c2cc(Br)c(O)cc12
38.3
Cc1ccc(C(=NN=C(N)N)c2ccc(C)cc2)cc1
8.66
COc1ccc(N2C(=O)C3c4[nH]c5ccc(C)cc5c4C4CCC(C(C)(C)C)CC4C3C2=O)cc1 (configuration not stated)
86.5
COc1ccc2c(c1)C=C([N+](=O)[O-])C(C1OC(C)(C)OC1C1COC(C)(C)O1)O2 (configuration not stated)
24.2
O=C(c1cccc(O)c1O)c1cn(Cc2ccc(F)cc2)c2cccc(O)c12
19.8
COc1ccc2c(c1)C(=O)c1c-2n(CCCn2ccnc2)c(=O)c2ccccc12
7.86

`Cc1ccc(Nc2nc3c(s2)C(=O)c2ccccc2C3=O)c(C)c1` yielded TGI of 25.6

###

Test system: A498 renal
Test: NCI tumour cell line growth inhibition, 48 h; in the data active = GI50 below about 0.43 µM; inactive = the rest
Hi there, use one of these labels in your reply, thanks! active, inactive

O=C(N/N=C/c1cccc(O)c1O)c1ccccc1
inactive

Could you kindly confirm the outcome this assay logged for `CCOC(=O)c1c(CN2CCN(c3ccccc3)CC2)n(-c2ccccc2)c2cc(Br)c(O)cc12` ?
inactive

Could you kindly confirm the outcome this assay logged for `NC(=S)N/N=C/c1ccc(OC(=O)COc2ccc(Cl)cc2)cn1` ?
inactive

###

Tested on: TK-10 renal
Assay: NCI tumour cell line growth inhibition, 48 h
Parameter TGI: see the listing below.

O=C(O)c1cccc(Nc2c(C(=O)O)cccc2[N+](=O)[O-])c1
> 100 µM
CCOC(=O)CC[C@H](N)C(=O)N[C@@H](Cc1ccc(N(CCCl)CCCl)cc1)C(=O)OCC
4.26 µM
Cc1cccc(NC(=O)C(=O)Cc2nc3ccccc3[nH]c2=O)c1C
> 100 µM
CC(C)(C)c1cc(S(=O)(=O)O)c2oc(-c3ccccc3)cc(=O)c2c1
> 100 µM

Would you kindly look at the next entry?
I looked up `Cc1ccc2nc3c(C(=O)NCCN(C)C)cccc3nc2c1` and its TGI for TK-10 renal was > 66 µM

###

Tested on: DMS 114 small cell lung
Experiment: NCI tumour cell line growth inhibition, 48 h
Parameter TGI: see the listing below.

Some solved entries appear below for comparison.
COC(=O)c1cccc2cccc(C(=O)Nc3ccc(C)cc3C)c12
> 100 µM
CN/N=C(/CCN1CCCC1)CC(c1ccccc1)c1c(O)c2ccccc2oc1=O (configuration not stated)
> 100 µM
Cc1ccc2nc3c(C(=O)NCCN(C)C)cccc3nc2c1
11.6 µM
COc1ccc(C2C(C(=O)O)=C(CO)Oc3cc4c(cc32)OCO4)cc1 (configuration not stated)
> 100 µM

`Nc1ccc(/C=C/c2ccnc3ccccc23)cc1` yielded TGI of 45.8 µM

`COc1ccc(-c2cn3ccsc3n2)cc1` yielded TGI of > 100 µM

`CC1=C2C(=O)O[C@@H](c3ccoc3)[C@]2(C)CCC1` yielded TGI of > 100 µM

C[N+](C)(C)CC1CCCC(C[N+](C)(C)C)C1=O (configuration not stated) yielded TGI of 3.49 µM

`Cc1noc(C)c1CCCOC1COc2ccccc2OCCOCCOc2ccccc2OC1` yielded TGI of > 100 µM

`Cn1cc(C(=O)c2ccccc2)ccc1=O` yielded TGI of > 100 µM

N#Cc1nc(C2OC(COC(=O)c3ccccc3)C(OC(=O)c3ccccc3)C2OC(=O)c2ccccc2)oc1N (configuration not stated) yielded TGI of > 100 µM

`O=c1cccccc1NCCCNc1cccccc1=O` yielded TGI of > 100 µM

###

Test system: MALME-3M melanoma
Experiment: NCI tumour cell line growth inhibition, 48 h
Parameter log10 of TGI: see the listing below.
Parameter value (number): base-10 log of TGI in µM.

CC(C)=CCc1c(O)cc(O)c2c1OC(c1ccc(O)cc1)C(O)C2=O (centres undefined)
1.85

`CCOC(=O)c1cc(/C(=N\O)c2cc(OC)c(OC)c(OC)c2)n2cc(C)cc(C)c12` yielded log10 of TGI of 0.60

CCCCCCCC(CC(=O)NC(CO)C(=O)NC(CO)CC(C)C)OC(=O)CC(CCCCCCC)OC(=O)CC(CCCCCCC)OC1OC(C)C(O)C(OC2OC(C)C(O)C(OC(C)=O)C2O)C1O (centres undefined) yielded log10 of TGI of 1.52

`COc1cc(C(=O)NNC(=O)c2cc(Br)ccc2NC(=O)c2cccs2)cc(OC)c1OC` yielded log10 of TGI of 1.94

`CCOc1cccc(C=Nc2ccccc2SSc2ccccc2N=Cc2cccc(OCC)c2O)c1O` yielded log10 of TGI of 1.37

###

Tested on: CAKI-1 renal
Assay: NCI tumour cell line growth inhibition, 48 h; in the data active means GI50 below about 0.43 µM; inactive means the rest
Hi there, use one of these labels in your reply, thanks! YES (active), NO (inactive)

Examples with answers:
CC(=O)OC1CC(O)C23COC(O)C1(C)C2CC(O)C1(C)C3C(=O)C(O)C2(C)C(c3ccoc3)CC3OC321 (stereo not given)
NO
COc1ccc2c(c1)C(=O)c1c-2n(CCCn2ccnc2)c(=O)c2ccccc12
YES
O=C(N/N=C/c1cccc(O)c1O)c1ccccc1
NO
COc1ccc(C(=O)COc2cccc(/C=C3\COc4ccc5ccccc5c4C3=O)c2)cc1
NO
CCC[CH2][Sn]1([CH2]CCC)[O]C(=O)C(C(C)C)N=Cc2ccccc2[O]1 (stereo not given)
YES
Fc1cc(F)c(COc2cc(Cn3cnc4c(Cl)nc(Cl)nc43)ccc2C23CC4CC(CC(C4)C2)C3)cc1F
NO

// next entry
Could you kindly confirm the outcome this assay logged for COc1cc(C2=NN(C(C)=O)C(c3ccc(OC(C)=O)cc3OC(C)=O)O2)c(OC(C)=O)c2ccccc12 (stereo not given) ?
NO

###

Tested on: UO-31 renal
Assay: NCI tumour cell line growth inhibition, 48 h; in the data active = GI50 below about 0.43 µM; inactive = the rest
Hi there, use one of these labels in your reply, thanks! T = active, F = inactive

Examples with answers:
COc1cc(NC(=O)c2cc(O)c(CC=C(C)C)c(O)c2)cc2c1O[C@]1(C)CC[C@@H](O)C(C)(C)[C@H]1C2
F
CCC#CC[C@H]1C/C=C2/C(=O)C=C[C@@H]2C/C=C\CCCC(=O)O1
F
CN(C)CCCn1c2c(c3ccccc3c1=O)C(=O)c1ccccc1-2
F
CC(C)c1ccc(C(=O)Nc2sc3c(c2C(N)=O)CCC(=O)C3)cc1
T
COc1cc(C2=NN(C(C)=O)C(c3ccc(OC(C)=O)cc3OC(C)=O)O2)c(OC(C)=O)c2ccccc12 (centres undefined)
T
CCS(=O)(=O)c1ccc(OC)c(Nc2ncc(-c3cccc(OC)c3)o2)c1
F

Could you kindly confirm the outcome this assay logged for `COc1ccc(OC)c(/C=C/C(=O)N/N=C/c2ccc(Cl)cc2)c1` ?
F

Could you kindly confirm the outcome this assay logged for `CC(=O)[CH-]C(=O)c1ccccc1.CC(=O)[CH-]C(=O)c1ccccc1.O=C([O-])c1ccc([O-])cc1.O=C([O-])c1ccc([O-])cc1.[Ti+4]` ?
F

Could you kindly confirm the outcome this assay logged for `CCN(CC)c1ccc(C(=N)c2ccc(N(CC)CC)cc2)cc1` ?
F

###

Test system: A549 NSCLC
Test: NCI tumour cell line growth inhibition, 48 h
Endpoint: TGI

Some solved entries appear below for comparison.
COc1nn(Cc2ccccn2)c2ccc([N+](=O)[O-])cc12
> 100 µM
O=C(O)CP(=S)(S)c1ccccc1 (stereo not given)
> 100 µM
CCN(CC)C(=O)c1cc(OC(C)C)ccc1-c1c(C)cc(OC(C)C)c(OC)c1OC
> 100 µM
COc1c2c(cc3nc4ccccc4nc13)CCC(C(C)(C)O)C2 (stereo not given)
> 100 µM
CC(C)c1ccc(C(=O)Nc2sc3c(c2C(N)=O)CCC(=O)C3)cc1
13.2 µM
CC(=O)OC1Oc2ccccc2-c2oc(=O)c(-c3cc4ccc(N(C)C)cc4oc3=O)cc21 (stereo not given)
36.9 µM
COc1ccc(C2C(C(=O)O)=C(CO)Oc3cc4c(cc32)OCO4)cc1 (stereo not given)
> 100 µM
CCOC(=O)CC[C@H](N)C(=O)N[C@@H](Cc1ccc(N(CCCl)CCCl)cc1)C(=O)OCC
> 48.9 µM
O=C1Cc2c([nH]c3ccc(Br)cc23)-c2cc(Br)ccc2N1
> 100 µM

Would you kindly look at the next entry?
`CCOC(=O)NC(=O)c1cn(CCOCCOC(=O)NCCCCCCNC(=O)OCCOCCn2cc(C(=O)NC(=O)OCC)c(=O)[nH]c2=O)c(=O)[nH]c1=O` yielded TGI of > 100 µM
